- TGT: TAOK2 (human) (UniProt Q9UL54)
- Sequence (Q9UL54 whole entry, looked up): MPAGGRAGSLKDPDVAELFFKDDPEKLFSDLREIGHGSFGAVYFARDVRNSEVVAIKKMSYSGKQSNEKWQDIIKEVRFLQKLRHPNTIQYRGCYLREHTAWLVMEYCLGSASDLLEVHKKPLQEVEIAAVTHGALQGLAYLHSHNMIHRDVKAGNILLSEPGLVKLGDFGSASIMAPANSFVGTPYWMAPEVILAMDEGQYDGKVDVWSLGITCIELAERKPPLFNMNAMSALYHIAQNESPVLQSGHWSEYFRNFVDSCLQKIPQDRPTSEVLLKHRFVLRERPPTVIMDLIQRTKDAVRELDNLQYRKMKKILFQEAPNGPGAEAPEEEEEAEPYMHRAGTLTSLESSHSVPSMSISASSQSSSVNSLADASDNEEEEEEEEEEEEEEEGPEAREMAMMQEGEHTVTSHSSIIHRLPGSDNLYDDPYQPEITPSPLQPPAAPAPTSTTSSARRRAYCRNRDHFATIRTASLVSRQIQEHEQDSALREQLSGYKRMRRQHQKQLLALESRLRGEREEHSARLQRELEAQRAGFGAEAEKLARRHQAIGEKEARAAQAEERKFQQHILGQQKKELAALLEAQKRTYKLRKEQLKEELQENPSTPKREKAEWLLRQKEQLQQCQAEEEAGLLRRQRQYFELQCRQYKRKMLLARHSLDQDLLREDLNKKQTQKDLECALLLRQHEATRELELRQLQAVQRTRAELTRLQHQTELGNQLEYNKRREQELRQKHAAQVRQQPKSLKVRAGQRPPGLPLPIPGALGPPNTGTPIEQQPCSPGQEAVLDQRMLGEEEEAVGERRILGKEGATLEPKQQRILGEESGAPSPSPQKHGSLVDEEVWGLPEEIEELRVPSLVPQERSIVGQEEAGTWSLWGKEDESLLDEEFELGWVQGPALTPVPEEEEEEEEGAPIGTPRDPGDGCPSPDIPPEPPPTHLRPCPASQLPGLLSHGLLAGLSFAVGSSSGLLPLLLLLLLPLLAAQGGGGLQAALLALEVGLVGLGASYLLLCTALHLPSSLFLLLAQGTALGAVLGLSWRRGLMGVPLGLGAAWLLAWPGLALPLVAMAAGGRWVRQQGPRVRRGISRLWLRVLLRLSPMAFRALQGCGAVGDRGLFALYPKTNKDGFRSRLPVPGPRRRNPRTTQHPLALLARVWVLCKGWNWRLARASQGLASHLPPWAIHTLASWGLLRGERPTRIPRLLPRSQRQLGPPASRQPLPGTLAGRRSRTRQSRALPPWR
- PROCEDURE_SUMMARY: KINOMEscan competition binding
- SETUP_CONDITIONS: compound 10.0 µM
TEST_READOUT: kinase still bound, per cent of control (%)
The reply should be a number in %, with the unit left off.

INSERT INTO assay_data (smiles_record, tgt, reported_value) VALUES
  ('C=CC(=O)Nc1cc(NC(=O)c2ccc(C)c(NC(=O)c3ccno3)c2)cc(C(F)(F)F)c1', 'TAOK2 (human) (UniProt Q9UL54)', 87),
  ('CN(C)C/C=C/C(=O)Nc1cccc(Nc2ncc3c(n2)N(C)c2ccccc2C(=O)N3C)c1', 'TAOK2 (human) (UniProt Q9UL54)', 0),
  ('O=C(NOC[C@H](O)CO)c1ccc(F)c(F)c1Nc1ccc(I)cc1F', 'TAOK2 (human) (UniProt Q9UL54)', 100);

Now for another entry.
stdin: What measured kinase still bound, per cent of control goes with O=C(NC1CC1)c1cccc(-c2ccc3c(NC(=O)C4CC4)n[nH]c3c2)c1 ?
stdout: 20

====

- TGT: MAP3K6 (human)
- PROCEDURE_SUMMARY: KINOMEscan competition binding
- SETUP_CONDITIONS: compound 10.0 µM
TEST_READOUT: kinase still bound, per cent of control
Write the figure, then the unit, nothing else.

INSERT INTO assay_data (smiles_record, reported_value) VALUES
  ('C=CC(=O)Nc1cccc(Nc2nc(N[C@H]3CC[C@H](N(C)C)CC3)nc3c2ncn3C(C)C)c1', '86%'),
  ('Cn1c(=O)n(-c2ccc(C(C)(C)C#N)cc2)c2c3cc(-c4cnc5ccccc5c4)ccc3ncc21', '100%'),
  ('CCC(=O)N1CCN(c2ccc(-n3c(=O)ccc4cnc5ccc(-c6cnc7ccccc7c6)cc5c43)cc2C(F)(F)F)CC1', '100%'),
  ('CCCS(=O)(=O)Nc1ccc(F)c(C(=O)c2c[nH]c3ncc(-c4ccc(Cl)cc4)cc23)c1F', '100%');

With those in mind, consider the next compound.
stdin: Query kinase still bound, per cent of control on MAP3K6 (human) for OCCCNc1cc(-c2ccnc(Nc3cccc(Cl)c3)n2)ccn1
stdout: 100%

====

// reported kinase still bound, per cent of control per item
- TGT: HCK (human)
- PROCEDURE_SUMMARY: KINOMEscan competition binding
- SETUP_CONDITIONS: compound 10.0 µM
Field: numeric (%). Do not append units.

Example cases with answers are listed next.
INSERT INTO measurements (smiles_record, reported_value) VALUES
  ('C[C@@H](Oc1cc(-n2cnc3ccc(CN4CCN(C)CC4)cc32)sc1C(N)=O)c1ccccc1C(F)(F)F', 100),
  ('Cn1c(=O)n(-c2ccc(C(C)(C)C#N)cc2)c2c3cc(-c4cnc5ccccc5c4)ccc3ncc21', 100),
  ('Cc1cc([C@@H](C)Nc2ccccc2C(=O)O)c2nc(N3CCOCC3)cc(=O)n2c1', 100),
  ('OCCCNc1cc(-c2ccnc(Nc3cccc(Cl)c3)n2)ccn1', 100);

stdin: Requested field: kinase still bound, per cent of control. Item: CCN1CCN(Cc2ccc(Nc3ncc4c(n3)N(C)c3ccccc3C(=O)N4C)cc2C(F)(F)F)CC1
stdout: 24

stdin: Quick one: kinase still bound, per cent of control for Cc1ccc(NC(=O)c2cccc(C(C)(C)C#N)c2)cc1Nc1ccc2ncn(C)c(=O)c2c1 ?
stdout: 3.1
